Listing: protein stability index of selected sequences
Tested on: Saccharomyces cerevisiae;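 note: PSI is a weighted mean of sequencing reads over stability bins, variants kept only with over 10 reads, mCherry proximal and sfGFP distal, peptide attached via GGGS linker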
ASSAY_COMMENT: protein stability index of tFT-peptide fusion (C-terminal peptide) (PSI (0-1 scale)); higher = more stable (slower turnover)
APPLIED_CONDITIONS: genetic background: das1 deletion; temperature: 30 C

SEQUENCE	protein stability index
MVVSLVLCFWAS	0.257
FICLLFSCVYLG	0.464
ACACFWVVWVGW	0.248
SFFVCVRVFGCC	0.255
FRHFPLLLSFVR	0.334
FFFVFLGLRSVF	0.357
PVWLFLVRAIKG	0.321
IVCYFFAFSFMW	0.293
YVASSWRHCFII	0.658
FERKVHSRWLFF	0.658
VYCLVLFFSQWC	0.365
RRLYERNKNNKQ	0.611
GPFGVGALVCCM	0.333
ILFRRRLCCFLK	0.443
SPWSIHLILLQV	0.265
VWGLGWLVVGVG	0.185
ASSSPAPYAPYT	0.647
LSLWPIFGIIYC	0.357
QCLSYFFPVPVA	0.186
